Can you tell me Bliss excess for the items I'm about to list?
Tested on: CESS (Acute Myeloid Leukemia);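 further: after 72 h of two-drug dosing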
Experimental Details: Bliss excess, mean over the matrix (fraction); higher = more synergy

Task item: Look up and report measured Bliss excess for this entry: COc1cc2c(cc1OCCCCCOc1cc3c(cc1OC)C(=O)N1C=C(C)C[C@H]1C=N3)N=C[C@@H]1CC(C)=CN1C2=O [SG3199] + O=C(c1cc(Cc2n[nH]c(=O)c3ccccc23)ccc1F)N1CCN(C(=O)C2CC2)CC1 [Olaparib] (first compound max 0.001 µM, 7x7, partner max 10 µM)
Reply: -0.0156

Task item: Entry Cn1cnc2c(F)c(Nc3ccc(Br)cc3Cl)c(C(=O)NOCCO)cc21 [Selumetinib] + CC(C)n1c(=O)n(C)c2cnc3cc(F)c(-c4ccc(OCCCN5CCCCC5)nc4)cc3c21 [AZD1390] (first compound max 10 µM, 7x7, partner max 0.3 µM) needs its Bliss excess filled in; supply it.
Reply: -0.0355

Task item: Tell us which Bliss excess value is on record for CC1(C)CCC(CN2CCN(c3ccc(C(=O)NS(=O)(=O)c4ccc(NCC5CCOCC5)c([N+](=O)[O-])c4)c(Oc4cnc5[nH]ccc5c4)c3)CC2)=C(c2ccc(Cl)cc2)C1 [Venetoclax] + CCN(CCO)CCCOc1ccc2c(Nc3cc(CC(=O)Nc4cccc(F)c4)[nH]n3)ncnc2c1 [AZD2811] (first compound max 1 µM, 7x7, partner max 1 µM)
Reply: 0.0083
